assay.notes: Stability of peptide/phospholipid complexes by visual inspection
Type: physicochemical
conditions.used: POPC, SM; PC/SM 70/30; C16PTX/PL mole ratio 0.1
Non-standard residues stand in square brackets, D forms with d. No end group written: not given here. Aib = CC(C)(N)C(=O)O
measurement.name: Stability by visual inspection (appearance)

substance	value
DVFQKLVELFNQLLEKWKQV [SEQ ID NO: 26]	Turbid
DV{AIB}QKFLELFNQLLEKWKQV (DV[Aib]QKFLELFNQLLEKWKQV) [SEQ ID NO: 32]	Turbid
DVFQKL{AIB}ELFNQLLEKWKQV (DVFQKL[Aib]ELFNQLLEKWKQV) [SEQ ID NO: 25]	Clear
DV{AIB}QKLFELFNQLLEKWKQV (DV[Aib]QKLFELFNQLLEKWKQV) [SEQ ID NO: 27]	Turbid

Data origin, for the record: patent US10532105B2
